Just for reference, the supplement of paper PMC11061612 is where these values come from.

Would you mind telling me the reported Bliss excess of each entry?
- Tested on: ES4 (Ewing's Sarcoma)
- protocolNotes: Bliss excess, mean over the matrix (fraction); higher = more synergy
One number for each entry.

Ask | Param readout= Bliss excess; system= ES4 (Ewing's Sarcoma); entry= CC1(C)CCC(CN2CCN(c3ccc(C(=O)NS(=O)(=O)c4ccc(NCC5CCOCC5)c([N+](=O)[O-])c4)c(Oc4cnc5[nH]ccc5c4)c3)CC2)=C(c2ccc(Cl)cc2)C1 [Venetoclax] + CN(C)CCCOc1ccc(-c2ccc3ncc4c(c3c2)n(C2CCOCC2)c(=O)n4C)cn1 [AZD0156] (first compound max 1 µM, 7x7, partner max 1 µM) ; returns value.
Reply | -0.0226

---
Ask | Param readout= Bliss excess; system= ES4 (Ewing's Sarcoma); entry= Cc1cc2ncnn2cc1Nc1ncc2c(n1)n(C1CCOCC1)c(=O)n2C [AZD7648] + C=CCn1c(=O)c2cnc(Nc3ccc(N4CCN(C)CC4)cc3)nc2n1-c1cccc(C(C)(C)O)n1 [AZD1775] (first compound max 10 µM, partner max 1 µM) ; returns value.
Reply | 0.0337

----------
Would you mind telling me the reported Bliss excess of each entry?
- Test system: ME-1 (Acute Myeloid Leukemia)
- protocolNotes: Bliss excess, mean over the matrix (fraction); higher = more synergy
One number for each entry.

Previously resolved entries follow.
Ask | Can you look up the measured Bliss excess of COc1cccc(OCCCN)c1-c1cc(Nc2cnc(C#N)cn2)n[nH]1 [Prexasertib] + CCc1c2c(nc3ccc(O)cc13)-c1cc3c(c(=O)n1C2)COC(=O)[C@]3(O)CC [SN-38] (first compound max 1 µM, 7x7, partner max 0.3 µM) for me?
Reply | 0.0086

Ask | Try this compound too: COc1cccc(OCCCN)c1-c1cc(Nc2cnc(C#N)cn2)n[nH]1 [Prexasertib] + Cc1cc2ncnn2cc1Nc1ncc2c(n1)n(C1CCOCC1)c(=O)n2C [AZD7648] (first compound max 1 µM, 7x7, partner max 10 µM)
Reply | -0.0048

Ask | Try this compound too: CC1(C)CCC(CN2CCN(c3ccc(C(=O)NS(=O)(=O)c4ccc(NCC5CCOCC5)c([N+](=O)[O-])c4)c(Oc4cnc5[nH]ccc5c4)c3)CC2)=C(c2ccc(Cl)cc2)C1 [Venetoclax] + C=CCn1c(=O)c2cnc(Nc3ccc(N4CCN(C)CC4)cc3)nc2n1-c1cccc(C(C)(C)O)n1 [AZD1775] (first compound max 1 µM, partner max 1 µM)
Reply | 0.0289

Working through the 5 compounds below one at a time, give Bliss excess for each.
1. CC(=O)Nc1cccc(-n2c(=O)n(C3CC3)c(=O)c3c(Nc4ccc(I)cc4F)n(C)c(=O)c(C)c32)c1 [Trametinib] + Cc1nc(-c2cn3c(n2)-c2ccc(-c4cnn(C(C)(C)C(N)=O)c4)cc2OCC3)n(C(C)C)n1 [Taselisib] (first compound max 1 µM, 7x7, partner max 10 µM)
2. Cc1cc2ncnn2cc1Nc1ncc2c(n1)n(C1CCOCC1)c(=O)n2C [AZD7648] + O=C(c1cc(Cc2n[nH]c(=O)c3ccccc23)ccc1F)N1CCN(C(=O)C2CC2)CC1 [Olaparib] (first compound max 10 µM, 7x7, partner max 10 µM)
3. Cn1cnc2c(F)c(Nc3ccc(Br)cc3Cl)c(C(=O)NOCCO)cc21 [Selumetinib] + CC(C)n1c(=O)n(C)c2cnc3cc(F)c(-c4ccc(OCCCN5CCCCC5)nc4)cc3c21 [AZD1390] (first compound max 10 µM, 7x7, partner max 0.3 µM)
4. CN(CCO)CC[C@H](CSc1ccccc1)Nc1ccc(S(=O)(=O)NC(=O)c2ccc(N3CCC([C@@H](O)c4ccccc4-c4ccc(Cl)cc4)CC3)cc2)cc1S(=O)(=O)C(F)(F)F [AZD4320] + CC(=O)O[C@H]1C(=O)[C@@]2(C)[C@H]([C@H](OC(=O)c3ccccc3)[C@]3(O)C[C@H](OC(=O)[C@H](O)[C@@H](NC(=O)c4ccccc4)c4ccccc4)C(C)=C1C3(C)C)[C@]1(OC(C)=O)CO[C@@H]1C[C@@H]2O [Paclitaxel] (first compound max 1 µM, 7x7, partner max 3 µM)
5. O=C(c1cc(Cc2n[nH]c(=O)c3ccccc23)ccc1F)N1CCN(C(=O)C2CC2)CC1 [Olaparib] + Cc1c2c(nn1C)CSCc1cc(n(C)n1)CSc1cc(c3ccccc3c1)OCCCc1c(C(=O)O)n(C)c3c-2c(Cl)ccc13 [AZD5991] (first compound max 10 µM, 7x7, partner max 1 µM)

Reply |
1: 0.118; 2: -0.004; 3: 0.0338; 4: 0.0994; 5: -0.0085

Working through the 5 compounds below one at a time, give Bliss excess for each.
1. CN(CCO)CC[C@H](CSc1ccccc1)Nc1ccc(S(=O)(=O)NC(=O)c2ccc(N3CCC([C@@H](O)c4ccccc4-c4ccc(Cl)cc4)CC3)cc2)cc1S(=O)(=O)C(F)(F)F [AZD4320] + CS(=O)(=O)CCNCc1ccc(-c2ccc3ncnc(Nc4ccc(OCc5cccc(F)c5)c(Cl)c4)c3c2)o1 [Lapatinib] (first compound max 1 µM, 7x7, partner max 10 µM)
2. C[C@@H](Nc1cc(F)cc(F)c1)c1cc(C(=O)N(C)C)cc2c(=O)cc(N3CCOCC3)oc12 [AZD8186] + CC(=O)c1c(C)c2cnc(Nc3ccc(N4CCNCC4)cn3)nc2n(C2CCCC2)c1=O [Palbociclib] (first compound max 10 µM, 7x7, partner max 10 µM)
3. Cc1cc2ncnn2cc1Nc1ncc2c(n1)n(C1CCOCC1)c(=O)n2C [AZD7648] + CCN(CCO)CCCOc1ccc2c(Nc3cc(CC(=O)Nc4cccc(F)c4)[nH]n3)ncnc2c1 [AZD2811] (first compound max 10 µM, 7x7, partner max 1 µM)
4. Cc1c2c(nn1C)CSCc1cc(n(C)n1)CSc1cc(c3ccccc3c1)OCCCc1c(C(=O)O)n(C)c3c-2c(Cl)ccc13 [AZD5991] + Nc1ccn([C@@H]2O[C@H](CO)[C@@H](O)C2(F)F)c(=O)n1 [Gemcitabine] (first compound max 1 µM, 7x7, partner max 0.3 µM)
5. C[C@@H](c1ccc2nccn2c1)n1nnc2ncc(-c3cnn(C)c3)nc21 [Savolitinib] + Cc1c2c(nn1C)CSCc1cc(n(C)n1)CSc1cc(c3ccccc3c1)OCCCc1c(C(=O)O)n(C)c3c-2c(Cl)ccc13 [AZD5991] (first compound max 1 µM, 7x7, partner max 1 µM)

Reply |
[0.0937, 0.0065, 0.0036, -0.0612, -0.051]

----------
- Test system: RO82-W-1 (Thyroid Gland Carcinoma)
- protocolNotes: combination Emax (second highest fraction inhibited in the dose matrix, 72 h); higher = more inhibition; extreme values may be limits of the assay
Would you mind telling me the reported combination Emax of each entry?
Answers are plain numbers.

Working through the 2 compounds below one at a time, give combination Emax for each.
1. CCc1c2c(nc3ccc(O)cc13)-c1cc3c(c(=O)n1C2)COC(=O)[C@]3(O)CC [SN-38] + CN(C)CCCOc1ccc(-c2ccc3ncc4c(c3c2)n(C2CCOCC2)c(=O)n4C)cn1 [AZD0156] (first compound max 0.3 µM, 7x7, partner max 1 µM)
2. Cc1cc2ncnn2cc1Nc1ncc2c(n1)n(C1CCOCC1)c(=O)n2C [AZD7648] + CN(C)CCCOc1ccc(-c2ccc3ncc4c(c3c2)n(C2CCOCC2)c(=O)n4C)cn1 [AZD0156] (first compound max 10 µM, 7x7, partner max 1 µM)

Reply |
1. 0.46
2. 0.394

Working through the 6 compounds below one at a time, give combination Emax for each.
1. C[C@@H](Nc1cc(F)cc(F)c1)c1cc(C(=O)N(C)C)cc2c(=O)cc(N3CCOCC3)oc12 [AZD8186] + C1CN(CCC1(C(=O)N[C@@H](CCO)C2=CC=C(C=C2)Cl)N)C3=NC=NC4=C3C=CN4 [AZD5363] (first compound max 10 µM, 7x7, partner max 10 µM)
2. CC(=O)c1c(C)c2cnc(Nc3ccc(N4CCNCC4)cn3)nc2n(C2CCCC2)c1=O [Palbociclib] + Cn1cnc2c(F)c(Nc3ccc(Br)cc3Cl)c(C(=O)NOCCO)cc21 [Selumetinib] (first compound max 10 µM, 7x7, partner max 10 µM)
3. CS(=O)(=O)CCNCc1ccc(-c2ccc3ncnc(Nc4ccc(OCc5cccc(F)c5)c(Cl)c4)c3c2)o1 [Lapatinib] + NC1(c2ccc(-c3nc4ccn5c(=O)[nH]nc5c4cc3-c3ccccc3)cc2)CCC1 [MK-2206] (first compound max 10 µM, 7x7, partner max 10 µM)
4. COc1nnc2ccc(N3CCC(c4ccc(OCCN5CCN(C)C(=O)[C@H]5C)cc4)CC3)nn12 [AZD5153] + C=CCn1c(=O)c2cnc(Nc3ccc(N4CCN(C)CC4)cc3)nc2n1-c1cccc(C(C)(C)O)n1 [AZD1775] (first compound max 1 µM, partner max 1 µM)
5. CCN(CCO)CCCOc1ccc2c(Nc3cc(CC(=O)Nc4cccc(F)c4)[nH]n3)ncnc2c1 [AZD2811] + C[C@@H]1COCCN1C2=NC(=NC(=C2)C3(CC3)[S@](=N)(=O)C)C4=C5C=CNC5=NC=C4 [AZD6738] (first compound max 1 µM, 7x7, partner max 10 µM)
6. O=C(c1cc(Cc2n[nH]c(=O)c3ccccc23)ccc1F)N1CCN(C(=O)C2CC2)CC1 [Olaparib] + CC1(C)CCC(CN2CCN(c3ccc(C(=O)NS(=O)(=O)c4ccc(NCC5CCOCC5)c([N+](=O)[O-])c4)c(Oc4cnc5[nH]ccc5c4)c3)CC2)=C(c2ccc(Cl)cc2)C1 [Venetoclax] (first compound max 10 µM, 7x7, partner max 1 µM)

Reply |
[0.201, 0.178, 0.24, 0.451, 0.405, 0.129]
